procedure details: Cytotoxicity in HepG2 cells (alamarBlue)
test settings: human
readout name: CC50 at 72 h

[Q] Return the recorded CC50 at 72 h value; entry: O=[N+]([O-])c1cn2c(n1)OC[C@@H](OCc1ccc(OC(F)(F)F)cc1)C2
[A] > 200 µM

----------
procedure details: Cytotoxicity in RAW 264.7 cells (alamarBlue)
test settings: mouse, RAW 264.7 macrophage cells
readout name: CC50 at 72 h (µM)
Give your result in µM as a bare value.

[Q] Return the recorded CC50 at 72 h value; entry: C[C@@H]1[C@H](O)[C@@H](C)/C=C/C=C/C=C/C=C/C=C/C=C/C=C/[C@H](O[C@@H]2O[C@H](C)[C@@H](O)[C@H](N)[C@@H]2O)C[C@@H]2O[C@](O)(C[C@@H](O)C[C@@H](O)[C@H](O)CC[C@@H](O)C[C@@H](O)CC(=O)O[C@H]1C)C[C@H](O)[C@H]2C(=O)O
[A] 6.7
